molecular target: F508delCFTR (Homo sapiens, UniProt P13569, DEL508-508); construct: expressed in transfected cells; host or cells: CFBE41o- human lung derived epithelial cell line, doxycycline-induced expression; assay: Cell Surface Expression-Horse Radish Peroxidase (CSE-HRP) assay in CFBE41o-F508delCFTR-HRP cells; type: cell-based; conditions: without co-corrector; CFBE41o-F508delCFTR-HRP cells, 18-24 hours at 33° C.; read-out: EC50 (without co-corrector)
Sequence (P13569 with tags, fused parts or gaps DEL508-508): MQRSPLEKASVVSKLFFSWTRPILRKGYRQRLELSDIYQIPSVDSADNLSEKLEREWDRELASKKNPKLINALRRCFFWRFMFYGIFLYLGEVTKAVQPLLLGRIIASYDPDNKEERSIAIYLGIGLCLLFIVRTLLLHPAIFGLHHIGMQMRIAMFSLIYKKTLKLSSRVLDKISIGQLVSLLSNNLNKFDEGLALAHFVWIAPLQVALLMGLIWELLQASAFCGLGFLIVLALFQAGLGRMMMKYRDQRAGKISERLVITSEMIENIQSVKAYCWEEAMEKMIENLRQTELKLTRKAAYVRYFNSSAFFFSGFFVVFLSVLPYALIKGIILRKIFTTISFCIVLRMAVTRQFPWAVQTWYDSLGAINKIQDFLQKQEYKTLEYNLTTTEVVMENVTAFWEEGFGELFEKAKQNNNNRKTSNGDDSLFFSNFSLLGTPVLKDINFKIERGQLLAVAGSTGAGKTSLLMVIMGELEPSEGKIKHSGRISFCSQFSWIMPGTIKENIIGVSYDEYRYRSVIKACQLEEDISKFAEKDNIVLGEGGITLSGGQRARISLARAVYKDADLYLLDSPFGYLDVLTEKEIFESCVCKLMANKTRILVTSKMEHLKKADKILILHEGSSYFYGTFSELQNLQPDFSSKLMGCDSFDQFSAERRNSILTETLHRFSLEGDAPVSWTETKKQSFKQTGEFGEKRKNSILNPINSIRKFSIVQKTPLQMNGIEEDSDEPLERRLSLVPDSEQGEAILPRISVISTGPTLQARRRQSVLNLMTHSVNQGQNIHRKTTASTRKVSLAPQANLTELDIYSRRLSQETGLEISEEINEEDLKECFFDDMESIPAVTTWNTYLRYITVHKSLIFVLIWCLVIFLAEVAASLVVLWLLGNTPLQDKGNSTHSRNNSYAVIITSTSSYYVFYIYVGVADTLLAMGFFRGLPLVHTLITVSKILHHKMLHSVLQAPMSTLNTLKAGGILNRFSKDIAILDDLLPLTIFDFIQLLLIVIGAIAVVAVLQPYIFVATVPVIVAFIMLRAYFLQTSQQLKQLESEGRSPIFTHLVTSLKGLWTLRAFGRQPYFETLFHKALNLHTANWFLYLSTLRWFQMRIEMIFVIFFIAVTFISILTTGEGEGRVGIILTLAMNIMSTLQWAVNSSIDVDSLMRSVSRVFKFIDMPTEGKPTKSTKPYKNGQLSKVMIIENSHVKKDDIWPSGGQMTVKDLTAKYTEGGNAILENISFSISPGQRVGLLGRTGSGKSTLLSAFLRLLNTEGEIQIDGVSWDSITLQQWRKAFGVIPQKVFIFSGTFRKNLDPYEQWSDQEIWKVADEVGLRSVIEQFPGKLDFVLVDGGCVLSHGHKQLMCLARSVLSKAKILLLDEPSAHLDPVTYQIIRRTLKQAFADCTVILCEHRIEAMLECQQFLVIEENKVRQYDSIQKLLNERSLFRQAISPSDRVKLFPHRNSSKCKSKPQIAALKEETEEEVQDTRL
value_type: EC50 (nM)
Write the number in nM without appending the unit.

COc1ccc(C)cc1[C@@]1(C(=O)NS(=O)(=O)c2cccc3nc(C)ccc23)CC(C)(C)CO1 [Example 5]	2270
COc1ccc(C)cc1[C@]1(C(=O)NS(=O)(=O)c2cccc3nc(C)ccc23)C[C@@H](c2ccccc2)CO1 [Example 36]	1590

Quick check: EC50 of COc1ccc(C)cc1C1(C(=O)NS(=O)(=O)c2cccc3nc(C)ccc23)CCC(c2ccccc2)O1 (stereo in doubt) [Example 7] ?
530

Same thing, different molecule: COc1ccccc1[C@@H]1CO[C@@](C(=O)NS(=O)(=O)c2cccc3nc(N)ccc23)(c2cc(C)ccc2OC)C1 [Example 40]
440
